# TEST SYSTEM: cloned human NR1/NR2B ion channels (Homo sapiens (Human), UniProt Q05586+Q13224)
# Sequence (Q13224 27-1484, other chains not shown): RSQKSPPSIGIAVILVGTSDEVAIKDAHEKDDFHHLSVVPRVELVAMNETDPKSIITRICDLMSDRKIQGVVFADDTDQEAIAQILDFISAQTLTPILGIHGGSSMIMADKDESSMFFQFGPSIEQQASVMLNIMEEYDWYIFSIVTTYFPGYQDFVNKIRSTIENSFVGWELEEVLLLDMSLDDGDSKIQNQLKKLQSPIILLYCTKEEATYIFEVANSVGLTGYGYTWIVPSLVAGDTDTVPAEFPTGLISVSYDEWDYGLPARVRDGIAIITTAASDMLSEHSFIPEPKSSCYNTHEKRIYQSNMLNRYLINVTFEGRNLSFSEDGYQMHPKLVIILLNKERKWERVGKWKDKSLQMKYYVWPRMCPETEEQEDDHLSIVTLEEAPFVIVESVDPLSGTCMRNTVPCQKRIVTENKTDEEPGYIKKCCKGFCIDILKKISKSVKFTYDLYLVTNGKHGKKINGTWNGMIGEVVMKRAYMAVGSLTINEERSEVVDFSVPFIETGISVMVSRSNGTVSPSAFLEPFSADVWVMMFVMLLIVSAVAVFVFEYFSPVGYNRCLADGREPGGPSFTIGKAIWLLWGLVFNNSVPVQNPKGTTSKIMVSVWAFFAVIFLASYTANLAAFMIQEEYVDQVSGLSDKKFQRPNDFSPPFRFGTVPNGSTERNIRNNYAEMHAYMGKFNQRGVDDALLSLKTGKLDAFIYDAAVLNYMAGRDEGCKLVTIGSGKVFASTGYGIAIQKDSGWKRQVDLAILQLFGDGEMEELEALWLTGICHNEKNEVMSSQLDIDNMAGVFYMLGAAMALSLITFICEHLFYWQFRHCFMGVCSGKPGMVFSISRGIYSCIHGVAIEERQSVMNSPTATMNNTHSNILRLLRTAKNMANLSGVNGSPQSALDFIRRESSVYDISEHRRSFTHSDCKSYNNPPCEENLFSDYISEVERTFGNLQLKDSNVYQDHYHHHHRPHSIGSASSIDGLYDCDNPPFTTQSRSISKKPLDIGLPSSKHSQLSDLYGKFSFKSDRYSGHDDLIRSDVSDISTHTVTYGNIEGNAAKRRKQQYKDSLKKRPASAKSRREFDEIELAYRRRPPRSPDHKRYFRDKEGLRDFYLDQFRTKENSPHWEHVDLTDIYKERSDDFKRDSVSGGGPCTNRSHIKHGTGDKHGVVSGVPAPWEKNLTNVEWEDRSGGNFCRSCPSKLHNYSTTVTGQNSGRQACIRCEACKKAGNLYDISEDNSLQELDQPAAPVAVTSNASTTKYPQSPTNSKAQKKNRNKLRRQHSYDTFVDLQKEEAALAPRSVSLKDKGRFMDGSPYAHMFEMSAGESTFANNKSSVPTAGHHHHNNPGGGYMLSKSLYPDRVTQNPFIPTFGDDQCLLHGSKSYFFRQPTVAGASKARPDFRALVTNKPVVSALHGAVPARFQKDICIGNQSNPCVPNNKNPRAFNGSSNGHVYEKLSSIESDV
# ASSAY: HNR2BC: effects of test articles on cloned human NR1/NR2B ion channels expressed in mammalian cells (FLIPR calcium flux)
# Assay type: cell-based
# CONDITION PARAMETERS: cloned human NR1/NR2B, Table 5
Where a name gives a salt, the structure may show the parent alone.
RECORDED ENDPOINT: pIC50
// field semantics: pIC50 = negative decimal log of concentration (mol/L)

INSERT INTO results (molecule, recorded_endpoint, measured_number) VALUES
  ('Cc1c(-c2cnc3ccn(CC(=O)N4CCC4)c3c2)cccc1C(F)(F)F [Example 167, trifluoroacetate salt]', 'pIC50', 7.40),
  ('O=C(Cn1ccc2ncc(-c3cccc(F)c3)cc21)N1CCOCC1 [Example 87]', 'pIC50', 6.00),
  ('Cc1csc(-c2cnc3c(F)cn(CC(=O)C(C)C)c3c2)c1 [Example 343]', 'pIC50', 7.20),
  ('Cc1cn(CC(=O)N2CCC2)c2cc(-c3ccc(F)cc3)cnc12 [Example 33]', 'pIC50', 7.20),
  ('O=C1CCN(C(=O)Cn2ccc3ncc(-c4ccc(F)cc4)cc32)C1 [Example 216, trifluoroacetate salt]', 'pIC50', 5.90);

Request: Report measured pIC50 on cloned human NR1/NR2B ion channels (Homo sapiens (Human), UniProt Q05586+Q13224); entry: O=C(Cn1ccc2ncc(-c3ccccc3F)cc21)N1CCCC1 [Example 79]
Result: 7.10

Request: Report measured pIC50 on cloned human NR1/NR2B ion channels (Homo sapiens (Human), UniProt Q05586+Q13224); entry: Fc1ccc(-c2cnc3ccn(CC4CCCCO4)c3c2)cc1 (racemic) [Example 228, trifluoroacetate salt]
Result: 6.20

Request: Report measured pIC50 on cloned human NR1/NR2B ion channels (Homo sapiens (Human), UniProt Q05586+Q13224); entry: Cc1cc(-c2cnc3ccn(CC(=O)N4CCOCC4)c3c2)ccc1F [Example 346]
Result: 7.40

Request: Report measured pIC50 on cloned human NR1/NR2B ion channels (Homo sapiens (Human), UniProt Q05586+Q13224); entry: Cc1cccc(-c2cnc3c(Cl)cn(CC(=O)N4CC(F)C4)c3c2)c1 [Example 54]
Result: 7.20

* * *

Listed here: items and their measured IC50.
# TEST SYSTEM: cloned human NR1/NR2B ion channels (Homo sapiens (Human), UniProt Q05586+Q13224)
# ASSAY: HNR2BC: effects of test articles on cloned human NR1/NR2B ion channels expressed in mammalian cells (FLIPR calcium flux)
# Type: cell-based
# CONDITION PARAMETERS: cloned human NR1/NR2B, Table 5
Number first, unit second.

Worked examples follow.
INSERT INTO assay_data (compound, recorded_endpoint, result) VALUES
  ('Cc1csc(-c2cnc3c(F)cn(CC(=O)N4CC(F)C4)c3c2)c1 [Example 309]', 'IC50', '200 nM'),
  ('O=C(Cn1cc(Cl)c2ncc(-c3ccc(F)c(C(F)(F)F)c3)cc21)N1CC(F)C1 [Example 35]', 'IC50', '200 nM'),
  ('O=C(Cn1ccc2ncc(-c3ccc(F)cc3)cc21)N1CC(O)(C(F)(F)F)C1 [Example 203]', 'IC50', '398 nM');

Let's switch to this compound now.
Request: Return value of IC50 for input O=C(Cn1ccc2ncc(-c3ccc(F)cc3)cc21)N1CC(F)(F)C1 [Example 213] , no commentary.
Result: 631 nM

* * *

# TEST SYSTEM: cloned human NR1/NR2B ion channels (Homo sapiens (Human), UniProt Q05586+Q13224)
# ASSAY: HNR2BC: effects of test articles on cloned human NR1/NR2B ion channels expressed in mammalian cells (FLIPR calcium flux)
# Type: cell-based
# CONDITION PARAMETERS: cloned human NR1/NR2B, Table 5
Counter-ions that a name gives are not always drawn.
Listed here: items and their measured IC50.
Supply the numeric figure in µM, leaving out any unit text.

INSERT INTO measurements (molecule, reading_unit, measured_number) VALUES
  ('Cc1cccc(-c2cnc3c(Cl)cn(CC(=O)N4CCOCC4)c3c2)c1 [Example 13]', 'µM', 0.0501),
  ('CN(C)C(=O)Cn1cc(F)c2ncc(-c3cc(F)c(F)c(F)c3)cc21 [Example 94]', 'µM', 0.0631),
  ('O=C(Cn1ccc2ncc(-c3ccc(F)cc3)cc21)C1CC1 [Example 222]', 'µM', 0.0794);

Let's switch to this molecule now.
Request: Return value of IC50 for input O=C(Cn1ccc2ncc(-c3ccc(F)c(C(F)(F)F)c3)cc21)N1CC(F)C1 [Example 262, trifluoroacetate salt] , no commentary.
Result: 0.1

* * *

# TEST SYSTEM: cloned human NR1/NR2B ion channels (Homo sapiens (Human), UniProt Q05586+Q13224)
# ASSAY: HNR2BC: effects of test articles on cloned human NR1/NR2B ion channels expressed in mammalian cells (FLIPR calcium flux)
# Format: cell-based
# CONDITION PARAMETERS: cloned human NR1/NR2B ion channels, Table 5
Counter-ions that a name gives are not always drawn.
Listed here: items and their measured pIC50.
// field semantics: pIC50 = negative decimal log of concentration (mol/L)

Worked examples follow.
INSERT INTO results (compound, measured_number) VALUES
  ('Cc1cc(-c2cnc3c(Cl)cn(CC(=O)N(C)C)c3c2)c(C)s1 [Example 599]', 7.00),
  ('CN(C)C(=O)Cn1ccc2ncc(-c3cc(Cl)cs3)cc21 [Example 391, trifluoroacetate salt]', 7.30),
  ('CN(CC(F)(F)F)C(=O)Cn1ccc2ncc(-c3ccc(F)cc3)cc21 [Example 411]', 7.60),
  ('Cc1cn(CC(=O)N2CCC2)c2cc(-c3ccccc3F)cnc12 [Example 592]', 6.90),
  ('CN(C)C(=O)Cn1cc(F)c2ncc(-c3ccccc3)cc21 [Example 495]', 7.90);

Request: Return value of pIC50 for input Cc1cc(-c2cnc3c(C)cn(CC(=O)N(C)C)c3c2)ccc1F [Example 566] , no commentary.
Result: 7.30

Request: Return value of pIC50 for input Cc1cccc(-c2cnc3ccn(CC(=O)N4CC(F)C4)c3c2)c1F [Example 454] , no commentary.
Result: 7.60

Request: Return value of pIC50 for input O=C(Cn1cc(F)c2ncc(-c3cccc(C(F)(F)F)c3)cc21)N1CCC1 [Example 475] , no commentary.
Result: 7.60

Request: Return value of pIC50 for input Cc1cn(CC(=O)N2CCC2)c2cc(-c3cc(F)cc(F)c3)cnc12 [Example 556] , no commentary.
Result: 6.40

Request: Return value of pIC50 for input O=C(Cn1ccc2ncc(-c3cccc(C(F)F)c3)cc21)N1CC(F)C1 [Example 458] , no commentary.
Result: 6.40

Request: Return value of pIC50 for input Cc1cn(CC(=O)N2CCC2)c2cc(-c3cc(F)c(F)c(F)c3)cnc12 [Example 570] , no commentary.
Result: 7.20

Request: Return value of pIC50 for input O=C(Cn1ccc2ncc(-c3cccc(Cl)c3F)cc21)N1CCC1 [Example 453] , no commentary.
Result: 7.60

* * *

Listed here: items and their measured pIC50.
# TEST SYSTEM: cloned human NR1/NR2B ion channels (Homo sapiens (Human), UniProt Q05586+Q13224)
# ASSAY: HNR2BC: effects of test articles on cloned human NR1/NR2B ion channels expressed in mammalian cells (FLIPR calcium flux)
# Format: cell-based
# CONDITION PARAMETERS: cloned human NR1/NR2B, Table 5
Counter-ions that a name gives are not always drawn.
// field semantics: pIC50 = negative decimal log of concentration (mol/L)

Worked examples follow.
INSERT INTO assay_data (compound, test_system, measured_number) VALUES
  ('Cc1cccc(-c2cnc3c(Br)cn(CC(=O)N4CCC4)c3c2)c1 [Example 22]', 'cloned human NR1/NR2B ion channels (Homo sapiens (Human), UniProt Q05586+Q13224)', 7.60),
  ('Cc1cccc(-c2cnc3ccn(CC(=O)NC4CC4)c3c2)c1C [Example 154, trifluoroacetate salt]', 'cloned human NR1/NR2B ion channels (Homo sapiens (Human), UniProt Q05586+Q13224)', 6.40),
  ('Cc1cccc(-c2cnc3ccn(Cc4cc(C)on4)c3c2)c1 [Example 61, trifluoroacetate salt]', 'cloned human NR1/NR2B ion channels (Homo sapiens (Human), UniProt Q05586+Q13224)', 6.40),
  ('O=C(Cn1ccc2ncc(-c3ccc(F)c(F)c3)cc21)N1CC(F)C1 [Example 128]', 'cloned human NR1/NR2B ion channels (Homo sapiens (Human), UniProt Q05586+Q13224)', 7.20),
  ('Cc1csc(-c2cnc3ccn(CC(=O)N4CCC4)c3c2)c1 [Example 359, trifluoroacetate salt]', 'cloned human NR1/NR2B ion channels (Homo sapiens (Human), UniProt Q05586+Q13224)', 7.50),
  ('Cc1cc(-c2cnc3ccn(CC4CCO4)c3c2)ccc1F (racemic) [Example 184, trifluoroacetate salt]', 'cloned human NR1/NR2B ion channels (Homo sapiens (Human), UniProt Q05586+Q13224)', 6.30),
  ('Cc1cc(F)ccc1-c1cnc2ccn(CC(=O)NC3CC3)c2c1 [Example 161, trifluoroacetate salt]', 'cloned human NR1/NR2B ion channels (Homo sapiens (Human), UniProt Q05586+Q13224)', 6.70),
  ('O=C(Cn1cc(Cl)c2ncc(-c3cncc(C(F)(F)F)c3)cc21)N1CCC1 [Example 243, trifluoroacetate salt]', 'cloned human NR1/NR2B ion channels (Homo sapiens (Human), UniProt Q05586+Q13224)', 7.00);

Request: Report measured pIC50 on cloned human NR1/NR2B ion channels (Homo sapiens (Human), UniProt Q05586+Q13224); entry: Cc1cccc(-c2cnc3ccn(CC(=O)N4CCOCC4)c3c2)c1 [Example 89]
Result: 6.70

Request: Report measured pIC50 on cloned human NR1/NR2B ion channels (Homo sapiens (Human), UniProt Q05586+Q13224); entry: O=C(Cn1cc(Cl)c2ncc(-c3ccccc3)cc21)N1CCCC1 [Example 4]
Result: 7.30

Request: Report measured pIC50 on cloned human NR1/NR2B ion channels (Homo sapiens (Human), UniProt Q05586+Q13224); entry: O=C(Cn1ccc2ncc(-c3ccc(F)cc3)cc21)N1CCCC1 [Example 80]
Result: 6.50

Request: Report measured pIC50 on cloned human NR1/NR2B ion channels (Homo sapiens (Human), UniProt Q05586+Q13224); entry: O=C(Cn1cc(Cl)c2ncc(-c3cccc(C(F)(F)F)n3)cc21)N1CC(F)C1 [Example 247]
Result: 6.50

Request: Report measured pIC50 on cloned human NR1/NR2B ion channels (Homo sapiens (Human), UniProt Q05586+Q13224); entry: O=C(Cn1cc(F)c2ncc(-c3cc(F)c(F)c(F)c3)cc21)N1CC(F)C1 [Example 306]
Result: 6.40

Request: Report measured pIC50 on cloned human NR1/NR2B ion channels (Homo sapiens (Human), UniProt Q05586+Q13224); entry: O=C(Cn1cc(Cl)c2ncc(-c3cccc(C(F)(F)F)c3)cc21)N1CCC1 [Example 298]
Result: 6.30

Request: Report measured pIC50 on cloned human NR1/NR2B ion channels (Homo sapiens (Human), UniProt Q05586+Q13224); entry: Cc1cc(-c2cnc3ccn(CCC(C)C)c3c2)ccc1F [Example 171, trifluoroacetate salt]
Result: 6.70

Request: Report measured pIC50 on cloned human NR1/NR2B ion channels (Homo sapiens (Human), UniProt Q05586+Q13224); entry: Cc1csc(-c2cnc3c(F)cn(CC(=O)N4CCC4)c3c2)c1 [Example 322]
Result: 7.70

Request: Report measured pIC50 on cloned human NR1/NR2B ion channels (Homo sapiens (Human), UniProt Q05586+Q13224); entry: Cc1cc(-c2cnc3ccn(Cc4cn(C)nn4)c3c2)ccc1F [Example 238]
Result: 5.50
